All values here come from ChEMBL document CHEMBL3734669.

# tested.on: Ephrin type-B receptor 6 (Homo sapiens, UniProt O15197)
# Sequence (O15197 whole entry): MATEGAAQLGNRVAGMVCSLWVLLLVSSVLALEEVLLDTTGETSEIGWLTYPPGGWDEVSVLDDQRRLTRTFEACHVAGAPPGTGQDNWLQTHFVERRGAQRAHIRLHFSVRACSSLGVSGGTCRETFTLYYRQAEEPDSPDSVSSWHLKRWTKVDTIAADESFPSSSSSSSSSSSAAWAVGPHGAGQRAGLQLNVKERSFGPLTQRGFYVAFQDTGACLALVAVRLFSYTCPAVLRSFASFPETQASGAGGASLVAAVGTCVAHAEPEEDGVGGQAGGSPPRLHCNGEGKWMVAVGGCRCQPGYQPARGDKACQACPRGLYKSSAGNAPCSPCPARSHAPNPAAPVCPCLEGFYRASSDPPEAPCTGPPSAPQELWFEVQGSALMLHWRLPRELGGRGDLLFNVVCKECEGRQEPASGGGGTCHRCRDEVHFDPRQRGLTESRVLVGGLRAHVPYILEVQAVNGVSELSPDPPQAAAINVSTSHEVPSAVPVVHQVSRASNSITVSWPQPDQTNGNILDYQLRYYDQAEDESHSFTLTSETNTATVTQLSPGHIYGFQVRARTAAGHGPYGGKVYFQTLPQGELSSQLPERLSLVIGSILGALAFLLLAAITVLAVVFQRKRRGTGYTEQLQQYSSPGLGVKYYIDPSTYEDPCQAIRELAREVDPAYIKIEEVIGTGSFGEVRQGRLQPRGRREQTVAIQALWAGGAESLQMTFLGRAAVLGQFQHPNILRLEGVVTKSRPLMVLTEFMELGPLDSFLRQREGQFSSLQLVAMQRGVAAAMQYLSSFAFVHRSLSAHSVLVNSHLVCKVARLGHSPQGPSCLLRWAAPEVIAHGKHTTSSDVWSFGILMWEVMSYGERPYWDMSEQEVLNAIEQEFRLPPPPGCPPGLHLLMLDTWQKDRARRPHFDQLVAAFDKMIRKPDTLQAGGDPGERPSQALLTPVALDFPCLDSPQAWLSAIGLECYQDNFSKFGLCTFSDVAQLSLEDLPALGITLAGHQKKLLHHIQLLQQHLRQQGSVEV
pIC50: −log10 of the molar value.
reported.metric: pIC50

# item.smiles, tested.on, reported.metric, test.result
rows = [
    ("C[C@H](CCC(=O)N[C@@H](Cc1c[nH]c2ccccc12)C(=O)O)[C@H]1CC[C@H]2[C@@H]3CC=C4C[C@@H](O)CC[C@]4(C)[C@H]3CC[C@]12C", "Ephrin type-B receptor 6 (Homo sapiens, UniProt O15197)", "pIC50", 5.48),
]

---

# assay.name: Tmax in mouse at 30 mg/kg, po administered as single dose by HPLC-MS analysis
# Format: ADME, organism-based
# experimental.conditions: in vivo

# item.smiles, unit.name, Tmax
data = [
    ("C[C@H](CCC(=O)N[C@@H](Cc1c[nH]c2ccccc12)C(=O)O)[C@H]1CC[C@H]2[C@@H]3CC=C4C[C@@H](O)CC[C@]4(C)[C@H]3CC[C@]12C", "min", 30),
]

---

Let's look at some compounds and their measured Cmax.
# assay.name: Cmax in mouse at 30 mg/kg, po administered as single dose by HPLC-MS analysis
# Assay type: ADME, organism-based
# Parameters: dose 30 mg/kg, route oral
# experimental.conditions: in vivo

# item.smiles, unit.name, Cmax
measured = [
    ("C[C@H](CCC(=O)N[C@@H](Cc1c[nH]c2ccccc12)C(=O)O)[C@H]1CC[C@H]2[C@@H]3CC=C4C[C@@H](O)CC[C@]4(C)[C@H]3CC[C@]12C", "nM", 1400),
    ("C[C@H](CCC(=O)N[C@H](CC(=O)O)Cc1c[nH]c2ccccc12)[C@H]1CC[C@H]2[C@@H]3CC[C@@H]4C[C@H](O)CC[C@]4(C)[C@H]3CC[C@]12C", "nM", 14),
]

---

# assay.name: n-octanol-water distribution coefficient, log D of the compound at pH 7.4 after 4 hrs by shake-flask method
# Type: physicochemical

# item.smiles, logD at 4 h
rows = [
    ("C[C@H](CCC(=O)N[C@@H](Cc1c[nH]c2ccccc12)C(=O)O)[C@H]1CC[C@H]2[C@@H]3CC=C4C[C@@H](O)CC[C@]4(C)[C@H]3CC[C@]12C", 4.01),
    ("C[C@H](CCC(=O)N[C@H](CC(=O)O)Cc1c[nH]c2ccccc12)[C@H]1CC[C@H]2[C@@H]3CC[C@@H]4C[C@H](O)CC[C@]4(C)[C@H]3CC[C@]12C", 4.9),
]

---

# tested.on: Ephrin type-A receptor 8 (Homo sapiens, UniProt P29322)
# Sequence (P29322 whole entry): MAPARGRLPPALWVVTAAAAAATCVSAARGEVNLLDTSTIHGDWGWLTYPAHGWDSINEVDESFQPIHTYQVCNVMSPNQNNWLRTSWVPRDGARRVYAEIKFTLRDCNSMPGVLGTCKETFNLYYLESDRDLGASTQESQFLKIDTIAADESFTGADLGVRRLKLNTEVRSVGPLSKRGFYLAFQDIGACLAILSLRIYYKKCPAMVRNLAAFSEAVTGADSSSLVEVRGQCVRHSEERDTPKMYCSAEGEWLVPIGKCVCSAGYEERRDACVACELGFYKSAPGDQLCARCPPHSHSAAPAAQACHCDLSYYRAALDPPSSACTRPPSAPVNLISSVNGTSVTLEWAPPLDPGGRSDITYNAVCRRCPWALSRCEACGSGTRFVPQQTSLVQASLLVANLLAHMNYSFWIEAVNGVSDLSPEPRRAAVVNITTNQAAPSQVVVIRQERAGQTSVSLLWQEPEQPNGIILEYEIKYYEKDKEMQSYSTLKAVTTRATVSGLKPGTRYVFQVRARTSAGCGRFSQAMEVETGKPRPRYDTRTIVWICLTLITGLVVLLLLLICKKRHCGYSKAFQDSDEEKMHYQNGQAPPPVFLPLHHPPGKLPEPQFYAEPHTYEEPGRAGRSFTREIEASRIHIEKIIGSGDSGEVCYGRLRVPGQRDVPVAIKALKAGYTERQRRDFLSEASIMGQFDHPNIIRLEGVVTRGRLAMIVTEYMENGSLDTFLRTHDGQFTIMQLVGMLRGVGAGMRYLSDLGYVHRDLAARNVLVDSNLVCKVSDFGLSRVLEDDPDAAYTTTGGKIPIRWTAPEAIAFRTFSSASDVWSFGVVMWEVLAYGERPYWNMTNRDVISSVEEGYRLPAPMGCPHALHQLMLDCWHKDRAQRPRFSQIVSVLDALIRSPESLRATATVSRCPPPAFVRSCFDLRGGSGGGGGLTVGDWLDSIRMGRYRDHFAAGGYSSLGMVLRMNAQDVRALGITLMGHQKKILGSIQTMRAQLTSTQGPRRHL
pIC50: −log10 of the molar value.

# item.smiles, pIC50
measured = [
    ("C[C@H](CCC(=O)N[C@@H](Cc1c[nH]c2ccccc12)C(=O)O)[C@H]1CC[C@H]2[C@@H]3CC=C4C[C@@H](O)CC[C@]4(C)[C@H]3CC[C@]12C", 5.51),
]

---

# tested.on: Ephrin type-A receptor 7 (Homo sapiens)
# Sequence (Q15375 whole entry): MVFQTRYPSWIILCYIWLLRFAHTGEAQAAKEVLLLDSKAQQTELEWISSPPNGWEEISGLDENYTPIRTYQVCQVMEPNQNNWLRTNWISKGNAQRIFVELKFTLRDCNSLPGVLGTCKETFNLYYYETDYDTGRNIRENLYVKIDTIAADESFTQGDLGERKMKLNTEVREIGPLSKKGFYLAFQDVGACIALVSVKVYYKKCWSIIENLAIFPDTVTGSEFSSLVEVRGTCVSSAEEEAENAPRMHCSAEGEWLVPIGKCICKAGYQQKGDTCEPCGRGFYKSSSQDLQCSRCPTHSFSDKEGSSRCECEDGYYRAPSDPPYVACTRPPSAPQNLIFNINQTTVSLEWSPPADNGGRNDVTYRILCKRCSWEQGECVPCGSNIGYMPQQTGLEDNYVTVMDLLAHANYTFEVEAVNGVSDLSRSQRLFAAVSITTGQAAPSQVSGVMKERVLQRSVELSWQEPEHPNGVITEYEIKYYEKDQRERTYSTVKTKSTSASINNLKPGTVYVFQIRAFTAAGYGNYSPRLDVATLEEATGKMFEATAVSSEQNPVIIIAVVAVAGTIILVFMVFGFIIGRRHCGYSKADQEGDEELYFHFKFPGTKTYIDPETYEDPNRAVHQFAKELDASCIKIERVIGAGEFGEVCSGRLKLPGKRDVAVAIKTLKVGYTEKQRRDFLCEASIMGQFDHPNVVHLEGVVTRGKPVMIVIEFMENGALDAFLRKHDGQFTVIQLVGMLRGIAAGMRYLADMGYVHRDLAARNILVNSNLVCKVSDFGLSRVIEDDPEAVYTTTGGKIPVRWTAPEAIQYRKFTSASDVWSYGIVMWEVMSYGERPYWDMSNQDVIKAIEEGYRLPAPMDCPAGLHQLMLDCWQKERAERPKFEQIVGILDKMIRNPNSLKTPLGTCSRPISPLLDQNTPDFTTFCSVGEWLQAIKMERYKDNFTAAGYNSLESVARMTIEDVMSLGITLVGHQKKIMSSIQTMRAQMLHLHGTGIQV
pIC50: −log10 of the molar value.
reported.metric: pIC50

# item.smiles, test.result
measured = [
    ("C[C@H](CCC(=O)N[C@@H](Cc1c[nH]c2ccccc12)C(=O)O)[C@H]1CC[C@H]2[C@@H]3CC=C4C[C@@H](O)CC[C@]4(C)[C@H]3CC[C@]12C", 5.60),
]

---

# tested.on: Ephrin type-B receptor 1 (Homo sapiens)
# Sequence (P54762 whole entry): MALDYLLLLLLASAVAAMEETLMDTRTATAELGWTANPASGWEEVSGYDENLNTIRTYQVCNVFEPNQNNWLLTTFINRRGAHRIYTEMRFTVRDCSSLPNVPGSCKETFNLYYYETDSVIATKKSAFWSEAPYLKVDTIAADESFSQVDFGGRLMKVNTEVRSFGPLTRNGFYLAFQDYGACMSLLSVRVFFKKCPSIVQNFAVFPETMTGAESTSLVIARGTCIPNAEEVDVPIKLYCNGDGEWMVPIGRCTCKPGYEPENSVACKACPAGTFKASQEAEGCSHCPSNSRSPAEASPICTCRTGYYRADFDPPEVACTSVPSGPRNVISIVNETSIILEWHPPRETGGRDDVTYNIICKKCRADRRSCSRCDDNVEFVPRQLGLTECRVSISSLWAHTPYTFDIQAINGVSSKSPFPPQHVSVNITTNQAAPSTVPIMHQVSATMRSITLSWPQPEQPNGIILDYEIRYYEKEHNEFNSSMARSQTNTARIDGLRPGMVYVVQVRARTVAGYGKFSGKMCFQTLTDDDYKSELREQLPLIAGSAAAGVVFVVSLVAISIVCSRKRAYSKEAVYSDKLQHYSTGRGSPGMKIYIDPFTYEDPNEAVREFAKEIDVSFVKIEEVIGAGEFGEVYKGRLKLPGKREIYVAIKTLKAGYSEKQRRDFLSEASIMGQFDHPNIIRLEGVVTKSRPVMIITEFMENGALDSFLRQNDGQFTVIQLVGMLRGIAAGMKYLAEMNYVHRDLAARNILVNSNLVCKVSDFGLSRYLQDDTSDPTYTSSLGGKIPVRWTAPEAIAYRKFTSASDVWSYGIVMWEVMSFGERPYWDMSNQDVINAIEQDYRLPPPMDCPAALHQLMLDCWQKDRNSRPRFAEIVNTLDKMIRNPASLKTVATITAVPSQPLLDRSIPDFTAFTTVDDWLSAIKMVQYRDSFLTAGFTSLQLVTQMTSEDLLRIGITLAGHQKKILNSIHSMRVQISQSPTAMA

# item.smiles, tested.on, IC50 / nM
data = [
    ("C[C@H](CCC(=O)N[C@@H](Cc1c[nH]c2ccccc12)C(=O)O)[C@H]1CC[C@H]2[C@@H]3CC=C4C[C@@H](O)CC[C@]4(C)[C@H]3CC[C@]12C", "Ephrin type-B receptor 1 (Homo sapiens)", 2500),
]
